Sourced from patent US20130273029A1

target: Human HER3, endogenous, on human cancer cell lines (SK-Br-3, MCF7, BT-474) (human, UniProt P21860 20-1342); test: cell-based or functional assay
Sequence (P21860 20-1342): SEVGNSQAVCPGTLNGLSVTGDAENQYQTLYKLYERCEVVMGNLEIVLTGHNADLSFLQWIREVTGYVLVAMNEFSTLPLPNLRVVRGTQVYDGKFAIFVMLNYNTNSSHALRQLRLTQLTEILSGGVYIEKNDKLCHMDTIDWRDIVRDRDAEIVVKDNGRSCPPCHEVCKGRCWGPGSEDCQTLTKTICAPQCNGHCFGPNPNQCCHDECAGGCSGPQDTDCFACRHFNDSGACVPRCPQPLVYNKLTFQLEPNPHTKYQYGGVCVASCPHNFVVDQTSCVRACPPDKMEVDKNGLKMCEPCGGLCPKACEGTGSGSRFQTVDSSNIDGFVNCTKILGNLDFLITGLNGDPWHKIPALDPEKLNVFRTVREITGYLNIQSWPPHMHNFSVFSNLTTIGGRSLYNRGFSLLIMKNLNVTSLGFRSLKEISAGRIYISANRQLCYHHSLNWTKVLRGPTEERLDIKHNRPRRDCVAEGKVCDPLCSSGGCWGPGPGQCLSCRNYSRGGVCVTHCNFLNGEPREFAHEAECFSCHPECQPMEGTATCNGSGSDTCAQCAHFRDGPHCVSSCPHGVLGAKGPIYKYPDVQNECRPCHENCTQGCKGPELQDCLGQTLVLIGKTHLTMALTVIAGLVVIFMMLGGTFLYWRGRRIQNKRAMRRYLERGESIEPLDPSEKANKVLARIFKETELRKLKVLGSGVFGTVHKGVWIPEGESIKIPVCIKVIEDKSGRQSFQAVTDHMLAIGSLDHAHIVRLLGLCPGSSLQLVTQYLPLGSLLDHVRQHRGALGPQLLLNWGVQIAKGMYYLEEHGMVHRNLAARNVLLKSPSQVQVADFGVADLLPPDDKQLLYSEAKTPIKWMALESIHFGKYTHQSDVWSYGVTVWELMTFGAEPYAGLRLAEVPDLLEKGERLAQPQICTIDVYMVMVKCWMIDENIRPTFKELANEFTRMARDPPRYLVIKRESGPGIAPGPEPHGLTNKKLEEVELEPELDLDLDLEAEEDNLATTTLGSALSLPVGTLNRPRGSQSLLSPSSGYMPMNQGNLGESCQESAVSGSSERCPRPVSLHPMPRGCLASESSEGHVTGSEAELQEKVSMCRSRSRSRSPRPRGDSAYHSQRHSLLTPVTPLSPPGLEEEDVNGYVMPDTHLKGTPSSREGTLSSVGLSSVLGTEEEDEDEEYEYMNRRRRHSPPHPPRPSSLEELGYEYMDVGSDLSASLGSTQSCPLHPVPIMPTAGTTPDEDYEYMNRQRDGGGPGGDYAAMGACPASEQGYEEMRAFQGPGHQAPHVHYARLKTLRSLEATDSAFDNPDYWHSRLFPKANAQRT

>  <BINDER>
MOR13756 (antibody, human IgG1, kappa, V domains shown, tested as IgG) VH: QVQLVQSGAEVKKPGESLKISCKGSGYSFTLTWVAWVRQMPGKGLEWMGIIYPGQSDTIYSPSFQGQVTISADKSISTAYLQWSSLKASDTAMYYCARVHIIQPPSAWSYNAMDVWGQGTLVTVSS VL: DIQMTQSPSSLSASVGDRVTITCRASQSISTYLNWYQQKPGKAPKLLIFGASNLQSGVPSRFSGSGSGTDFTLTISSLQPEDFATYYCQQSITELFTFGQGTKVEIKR

>  <SK-Br-3 pHER3 IC50 / pM>
95

$$$$
>  <BINDER>
MOR13761 (antibody, human IgG1, kappa, V domains shown, tested as IgG) VH: QVQLVQSGAEVKKPGESLKISCKGSGYSFTQTWVAWVRQMPGKGLEWMGIIYPGQSDTIYSPSFQGQVTISADKSISTAYLQWSSLKASDTAMYYCARVHIIQPPSAWSYNAMDVWGQGTLVTVSS VL: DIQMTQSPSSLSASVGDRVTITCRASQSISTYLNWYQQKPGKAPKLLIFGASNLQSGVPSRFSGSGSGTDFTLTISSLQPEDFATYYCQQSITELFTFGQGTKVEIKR

>  <SK-Br-3 pHER3 IC50 / pM>
62

$$$$
